For each of the binders below, state its koff.
- System tested: T1, Human CD137 ECD (human)
- T1 construct: also called human CD137 extracellular domain; recombinant human CD137
- T1 sequence (chain, as listed by the source limits assumed): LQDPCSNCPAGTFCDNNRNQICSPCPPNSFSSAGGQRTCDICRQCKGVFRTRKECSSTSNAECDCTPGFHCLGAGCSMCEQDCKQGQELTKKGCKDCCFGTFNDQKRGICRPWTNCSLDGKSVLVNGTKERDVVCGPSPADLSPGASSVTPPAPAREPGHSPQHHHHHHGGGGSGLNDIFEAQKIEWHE
- Protocol: SPR Biacore T200, 37 C, Ab captured on anti-human Fc, antigen as analyte;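 also: recombinant human CD137 flowed over antibodies held by amine-coupled anti-human Fc on a CM4 chip, run in ACES pH 7.4 buffer with 150 mM NaCl and 0.05% Tween 20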
Please state the figure in s⁻¹; there is no need to write the unit.

Which koff value is on record for H0868L0581 (antibody, V domains shown, Dual-Ig, IgG; also called H868L581; dBBDu183H0868/dBBDu072L0581) VH: QVQLVESGGGLVQPGRSLRLSCAASGFKFSNVWMHWVRQAPGKGLEWVAQIKDKYNAYAAYYAPSVKGRFTISRDDSKNSIYLQMNSLKTEDTAVYYCHYVHYASASTLLPAFGVDAWGQGTTVTVSS VL: DIVMTQSPLSLPVTPGEPASISCQPSQEVVHMNRNTYLHWYQQKPGQAPRLLIYKVSNRFPGVPDRFSGSGSGTDFTLKISRVEAEDVGVYYCAQGTSHPFTFGQGTKLEIK ?
0.00136

Which koff value is on record for H1673L0943 (antibody, V domains shown, Dual-Ig, IgG; also called dBBDu183H1673/dBBDu072L0943) VH: QVQLVESGGGLVQPGRSLRLSCAASGFVFSNVWFHWVRQAPGKGLEWVAQIKDKWNAYADYYAPSVKERFTISRDDSKNSIYLQMNSLKTEDTAVYYCHYIHYASASTLLPAEGIDAWGQGTTVTVSS VL: DIVMTQSPLSLPVTPGEPASISCQPSEEVVHMNRNTYLHWYQQKPGQAPRLLIYKVSNLFPGVPDRFSGSGSGTDFTLKISRVEAEDVGVYYCAQGTHHPFTFGQGTKLEIK ?
0.000722

Which koff value is on record for H1610L0581 (antibody, V domains shown, Dual-Ig, IgG; also called H1610L581; dBBDu183H1610/dBBDu072L0581) VH: QVQLVESGGGLVQPGRSLRLSCAASGFVFSNVWMHWVRQAPGKGLEWVAQIKDKWNAYAAYYAPSVKGRFTISRDDSKNSIYLQMNSLKTEDTAVYYCHYIHYASASTLLPAEGIDAWGQGTTVTVSS VL: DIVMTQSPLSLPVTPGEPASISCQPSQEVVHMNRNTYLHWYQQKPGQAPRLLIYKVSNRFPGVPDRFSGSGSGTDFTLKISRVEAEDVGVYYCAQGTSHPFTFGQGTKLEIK ?
0.0011
